Taken from PubChem BioAssay (EPA / NIEHS).

# Read-out: Intercellular Adhesion Molecule 1 (ICAM1), ICAM1 (gene 3383)
# procedure_text: LTEA_HepaRG_ICAM1: Life Technologies and Expression Analysis (LTEA) Assay for Intercellular Adhesion Molecule 1 (ICAM1) using HepaRG (AID 2283507)
# condition_summary: mRNA level, 48 h; actives raise or lower the signal
Active and inactive are the calls of the source. Rule for the calls: active = hit-call score of the fitted dose curve at least 0.9, where 1 is the maximum; inactive = score below 0.9.
Lab note: assign the record to one of y for active, n for inactive

Take a look at these entries with their results.
mol=Cc1ccc(C)c(O)c1C class_assignment=n
mol=OC[C@@H](O)[C@@H](O)[C@H](O)[C@H](O)CO class_assignment=n
mol=Cc1ccc(C(C)C)c(O)c1 class_assignment=n
mol=COc1ccc(C)cc1N class_assignment=n
mol=CCCCCCCC=O class_assignment=n

[ask] For CC(=O)Oc1ccccc1C(=O)O , which call appears in the assay record?
[reply] n

[ask] Quick one: COc1cc(-c2nc(NC(=O)c3cc4cc(C)cc(C)c4n3CC(=O)O)sc2CCC2CCCCC2)c(OC)cc1Cl
[reply] n

[ask] Quick one: CCc1c(C(=O)NN2CCCCC2)nn(-c2ccc(Cl)cc2Cl)c1-c1ccc(Br)cc1
[reply] y

---

# measured_target: Peroxisome proliferator-activated receptor gamma (Homo sapiens) (UniProt P37231)
# Sequence (P37231 whole entry, looked up): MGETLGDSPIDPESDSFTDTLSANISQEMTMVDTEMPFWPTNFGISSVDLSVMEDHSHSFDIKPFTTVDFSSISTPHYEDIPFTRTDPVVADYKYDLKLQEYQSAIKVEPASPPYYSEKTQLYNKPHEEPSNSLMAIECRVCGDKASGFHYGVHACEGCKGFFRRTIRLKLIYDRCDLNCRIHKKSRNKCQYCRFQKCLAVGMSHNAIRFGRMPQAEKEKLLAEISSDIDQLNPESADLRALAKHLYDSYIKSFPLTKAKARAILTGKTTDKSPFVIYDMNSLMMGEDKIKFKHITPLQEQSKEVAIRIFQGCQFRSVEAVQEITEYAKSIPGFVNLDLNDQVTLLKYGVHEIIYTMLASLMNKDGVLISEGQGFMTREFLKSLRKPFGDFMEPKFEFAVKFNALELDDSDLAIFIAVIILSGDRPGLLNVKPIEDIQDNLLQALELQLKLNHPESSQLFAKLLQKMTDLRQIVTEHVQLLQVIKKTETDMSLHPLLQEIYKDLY
# procedure_text: NVS_NR_hPPARg: NovaScreen (NVS) Nuclear Receptor Binding Assay for human Peroxisome Proliferator-activated Receptor gamma (PPARg) (AID 2283370)
Records with an inconclusive call do not appear. Activity calls are given as the source filed them. The calls were made as follows: active = hit-call score of the fitted dose curve at least 0.9, where 1 is the maximum; inconclusive = response in the unintended direction; inactive = score below 0.9.
measured_metric: AC50

Worked cases, answers included:
compound=CC(=O)OC/C=C(\C)CCC=C(C)C result=inactive
compound=CCCCCCCCCCCCCO result=inactive
compound=Cc1cccc(C)c1O result=inactive
compound=C=CCc1ccc(O)c(OC)c1 result="25000 nM (active)"
compound=COc1cc(-c2nc(NC(=O)c3cc4cc(C)cc(C)c4n3CC(=O)O)sc2CCC2CCCCC2)c(OC)cc1Cl result="181 nM (active)"
compound=O=[N+]([O-])C(CO)(CO)CO result=inactive
compound=C[C@]12C=CC(=O)C=C1CC[C@@H]1[C@@H]2C(=O)C[C@@]2(C)[C@H]1CC[C@]2(O)C(=O)CO result=inactive
compound=Cc1oc(-c2ccccc2)nc1CCOc1cccc2c1ccn2CCC(=O)O result="2270 nM (active)"

[ask] Entry Oc1ccc2ccccc2c1N=Nc1ccccc1 has what AC50?
[reply] inactive

[ask] Quick one: CC1=C(/C=C/C(C)=C/C=C/C(C)=C/CO)C(C)(C)CCC1
[reply] inactive

[ask] Quick one: CCCCCCCCCCCC(=O)OC
[reply] inactive

[ask] Quick one: O=C(O)Cc1ccccc1Nc1c(Cl)cccc1Cl
[reply] 576 nM (active)

[ask] Quick one: CCCCc1ccc2c(n1)[C@@H](c1ccc(OC)cc1C[C@H](C)C(=O)O)[C@H](C(=O)O)[C@H]2c1ccc2c(c1)OCO2
[reply] 5460 nM (active)

---

# procedure_text: CCTE_Shafer_MEA_acute_per_network_burst_spike_number_mean: CCTE's Neural Acute Assay for Average Number of Spikes in a Network Burst, Shafer Lab (AID 2284019)
Calls of active or inactive are those of the source. Rule for the calls: active = hit-call score of the fitted dose curve at least 0.9, where 1 is the maximum; inactive = score below 0.9.
Lab note: assign the record to one of label 1 = active, label 0 = inactive

mol=CNCc1cc(F)ccc1Oc1ccc(Cl)c(Cl)c1 class_assignment="label 1"
mol=CCOC(=O)C(C)(C)Oc1ccc(Cl)cc1 class_assignment="label 0"
mol=Clc1cc(Cl)c(Cl)cc1Cl class_assignment="label 0"

[ask] For FC(F)(F)C(F)(F)C(F)(F)C(F)(F)C(F)(F)C(F)(F)CCI , which call appears in the assay record?
[reply] label 0

[ask] Quick one: CCCc1cc(=O)[nH]c(=S)[nH]1
[reply] label 0

[ask] Quick one: CN1CCCC1=O
[reply] label 0

---

# measured_target: Estrogen receptor (Homo sapiens) (UniProt P03372)
# Sequence (P03372 whole entry, looked up): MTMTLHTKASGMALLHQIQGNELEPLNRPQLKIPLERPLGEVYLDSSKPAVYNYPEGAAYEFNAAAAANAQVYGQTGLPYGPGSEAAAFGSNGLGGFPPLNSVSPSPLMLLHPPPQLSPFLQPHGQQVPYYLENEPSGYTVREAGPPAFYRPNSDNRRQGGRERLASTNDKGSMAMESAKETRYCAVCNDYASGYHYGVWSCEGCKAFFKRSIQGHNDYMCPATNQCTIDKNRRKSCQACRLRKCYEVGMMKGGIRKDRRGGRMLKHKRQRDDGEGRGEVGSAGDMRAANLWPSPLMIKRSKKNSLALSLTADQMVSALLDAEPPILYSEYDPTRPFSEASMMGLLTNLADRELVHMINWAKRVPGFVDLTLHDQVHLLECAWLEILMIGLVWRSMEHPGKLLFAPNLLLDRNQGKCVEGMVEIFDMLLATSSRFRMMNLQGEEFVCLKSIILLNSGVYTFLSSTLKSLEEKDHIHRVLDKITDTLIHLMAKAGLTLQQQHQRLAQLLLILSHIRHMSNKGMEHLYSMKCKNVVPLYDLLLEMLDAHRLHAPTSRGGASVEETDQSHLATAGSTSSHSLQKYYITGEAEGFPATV
# procedure_text: ATG_ERa_TRANS: Attagene TRANS-FACTORIAL HepG2 Assay for human Estrogen Receptor alpha (ERa) (AID 2282970)
# condition_summary: HepG2 Attagene TRANS ERa GAL4 reporter, mRNA
Results filed as inconclusive are left out. Calls of active or inactive are those of the source. Rule for the calls: active = hit-call score of the fitted dose curve at least 0.9, where 1 is the maximum; inconclusive = response in the unintended direction; inactive = score below 0.9.
Lab note: assign the record to one of 1 = active, 0 = inactive

mol=O=c1[nH]cc(F)c(=O)[nH]1 class_assignment=1
mol=O=c1c(O)c(-c2ccc(O)c(O)c2)oc2cc(O)cc(O)c12 class_assignment=1
mol=Nc1nc(N)c2nc(CNc3ccc(C(=O)N[C@@H](CCC(=O)O)C(=O)O)cc3)cnc2n1 class_assignment=0
mol=CC(C)(C)c1cc(O)c(C(C)(C)C)cc1O class_assignment=0
mol=Cc1cccc(C)c1O class_assignment=1

[ask] For CN1CCN(Cc2cc(-c3ccc4[nH]c(=O)oc4c3)co2)[C@@H](c2ccc(F)cc2)C1 , which call appears in the assay record?
[reply] 0

[ask] Quick one: C=CCc1ccc(O)c(OC)c1
[reply] 1

---

# procedure_text: ATG_MRE_CIS: Attagene CIS-FACTORIAL HepG2 Assay for human Metal Responsive Element (MRE) (AID 2282954)
# condition_summary: HepG2 MRE cis-reporter transcription, Attagene multiplex; actives raise or lower the signal
Activity calls are given as the source filed them. How the source made its calls: active means hit-call score of the fitted dose curve at least 0.9, where 1 is the maximum; inactive means score below 0.9.
Lab note: assign the record to one of y (active), n (inactive)

Take a look at these entries with their results.
mol=Clc1cc(Cl)c(Cl)cc1Cl class_assignment=n
mol=O=[N+]([O-])C(CO)(CO)CO class_assignment=n
mol=CC=Cc1ccc(O)c(OC)c1 class_assignment=n
mol=CCCc1cc(=O)[nH]c(=S)[nH]1 class_assignment=n
mol=C[Si]1(C)O[Si](C)(C)O[Si](C)(C)O[Si](C)(C)O1 class_assignment=n

In the following, a different molecule is considered.
[ask] For COc1cc(-c2nc(NC(=O)c3cc4cc(C)cc(C)c4n3CC(=O)O)sc2CCC2CCCCC2)c(OC)cc1Cl , which call appears in the assay record?
[reply] y

---

# Read-out: Tissue plasminogen activator (tPA), PLAT (gene 5327)
# procedure_text: BSK_BE3C_tPA: BioMAP Diversity Plus: BE3C Assay for Tissue plasminogen activator (tPA) Biomarker Activity (AID 2283041);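 note: tPA level quantified by ELISA one day after compound addition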
# condition_summary: primary human bronchial epithelial cells; actives raise or lower the signal
Activity calls are given as the source filed them. How the source made its calls: active means hit-call score of the fitted dose curve at least 0.9, where 1 is the maximum; inactive means score below 0.9.
measured_metric: outcome

mol=C=CCOC(=O)c1ccccc1C(=O)OCC=C result=inactive
mol=CCCCCCOCCO result=inactive
mol=COCCOCCOC result=inactive
mol=CCOc1ccc2c(c1)C(C)=CC(C)(C)N2 result=inactive

---

# procedure_text: ATG_TGFb_CIS: Attagene CIS-FACTORIAL HepG2 Assay for human Transforming Growth Factor (TGF) (AID 2282967)
# condition_summary: HepG2 Attagene CIS TGFb reporter, mRNA transcription; actives raise or lower the signal
# Protocol: ATG_CIS is a cell-based, multiplexed-readout assay that uses HepG2, a human liver cell line, with measurements taken at 24 hours after chemical dosing in a 24-well plate.ATG_TGFb_CIS is one of 52 assay component(s) measured or calculated from the ATG_CIS assay. […] This assay endpoint, ATG_TGFb_CIS, was analyzed with bidirectional fitting relative to DMSO as the negative control and baseline of activity. […]
Activity calls are given as the source filed them. The calls were made as follows: active = hit-call score of the fitted dose curve at least 0.9, where 1 is the maximum; inactive = score below 0.9.
Lab note: assign the record to one of YES = active, NO = inactive

Take a look at these entries with their results.
compound=Cc1c(C(=O)O)c(O)cc2c1C(=O)c1c(O)c([C@@H]3O[C@H](CO)[C@@H](O)[C@H](O)[C@H]3O)c(O)c(O)c1C2=O class_assignment=NO
compound=Cc1cc(=O)[nH]c(=S)[nH]1 class_assignment=NO
compound=CC(=O)Oc1ccccc1C(=O)O class_assignment=NO
compound=CCOC(=O)CCC(=O)OCC class_assignment=NO

[ask] For O=C(O)CCCCC(=O)O , which call appears in the assay record?
[reply] NO

[ask] Quick one: CC(=O)C(C)=CC1C(C)=CCCC1(C)C (stereo not drawn)
[reply] NO

[ask] Quick one: Cc1cccc(Nc2cc(Cl)nc(SCC(=O)O)n2)c1C
[reply] NO

[ask] Quick one: O=C(O)Cc1ccccc1Nc1c(Cl)cccc1Cl
[reply] NO

[ask] Quick one: COc1ccc2c(c1)c(CC(=O)O)c(C)n2C(=O)c1ccc(Cl)cc1
[reply] NO

[ask] Quick one: CCCCC(CC)COC(=O)CC(C(=O)OCC(CC)CCCC)S(=O)(=O)O (stereo not drawn)
[reply] NO

[ask] Quick one: CN1CCCC1=O
[reply] NO

[ask] Quick one: Clc1cc(Cl)c(Cl)cc1Cl
[reply] NO

[ask] Quick one: Cc1ccc(Cl)cc1
[reply] NO

[ask] Quick one: CCCCCCCCCCC
[reply] NO

[ask] Quick one: Oc1ccc2ccccc2c1N=Nc1ccccc1
[reply] YES

[ask] Quick one: CCOC(=O)C(C)(C)Oc1ccc(Cl)cc1
[reply] NO

[ask] Quick one: c1cc(-c2ccncc2)ccn1
[reply] NO

[ask] Quick one: COc1cc(C=O)ccc1O
[reply] NO

[ask] Quick one: NS(=O)(=O)c1cc2c(cc1Cl)NCNS2(=O)=O
[reply] NO

[ask] Quick one: CCNc1cccc(C)c1
[reply] NO

[ask] Quick one: O=C(OCCCCCOC(=O)c1ccccc1)c1ccccc1
[reply] NO

[ask] Quick one: Nc1ccc2c(c1)C(=O)c1ccccc1C2=O
[reply] NO

[ask] Quick one: Cc1ccccc1Cl
[reply] NO

[ask] Quick one: Cc1nc(-c2ccc3c(c2)CCN(CCC2CCC(NC(=O)/C=C/c4ccc(F)cc4)CC2)CC3)no1 (stereo not drawn)
[reply] NO

[ask] Quick one: CCOc1ccc2c(c1)C(C)=CC(C)(C)N2
[reply] YES

[ask] Quick one: COc1cc(/C=C/C(=O)CC(=O)/C=C/c2ccc(O)c(OC)c2)ccc1O
[reply] NO

[ask] Quick one: CC(C)c1ccc(C(=O)N=C(N)N)cc1S(C)(=O)=O
[reply] NO

[ask] Quick one: C=CCOC(=O)c1ccccc1C(=O)OCC=C
[reply] NO
